# reported melting point; entries follow

Guide cases for melting point, answers given:
CN(C)C(=O)c1ccccc1/C=C/C(=O)CC(=O)/C=C/c1ccc(O)cc1 | 210 to 218 °C
COc1ccc(/C=C/C(=O)CC(=O)/C=C/c2ccc3cc[nH]c3c2)cc1O | 197 to 202 °C
COc1ccc(/C=C/C(=O)CC(=O)/C=C/c2cc(OC)c(O)c(OC)c2)cc1O | 91 to 95 °C

Ask: What does the data say about its melting point? Entry: CCn1c2ccccc2c2cc(/C=C/C(=O)CC(=O)/C=C/c3ccc(O)c(OC)c3)ccc21
Result: 165 to 169 °C

Ask: I am curious: what melting point value has been reported for COc1ccc(OC)c(/C=C/C(=O)CC(=O)/C=C/c2ccc(O)c(OC)c2)c1 ?
Result: 127 to 129 °C

Ask: If you can, please state the reported melting point value of CCN(CC)c1ccc(/C=C/C(=O)CC(=O)/C=C/c2ccc(O)cc2)c(OCc2c(F)cccc2Cl)c1 .
Result: 172 to 175 °C

Ask: Quick check: melting point of O=C(/C=C/c1ccc(O)cc1)CC(=O)/C=C/c1ccc(Cl)c(Cl)c1 ?
Result: 83 to 85 °C

Ask: Entry COc1ccc(/C=C/C(=O)CC(=O)/C=C/c2cc(Cl)cc(Cl)c2)cc1O : reported melting point = ?
Result: 176 to 183 °C

Ask: Looking for the measured melting point of COc1cc(/C=C/C(=O)CC(=O)/C=C/c2cccc(O)c2)ccc1O , can you help?
Result: 74 to 80 °C

Ask: Give its melting point value. Item: COc1cc(/C=C/C(=O)CC(=O)/C=C/c2ccc(S(C)(=O)=O)cc2)ccc1O
Result: 117 to 120 °C
